- Test system: SW1990
- measurement-notes: Anticancer activity against human SW1990 cells assessed as cell growth inhibition measured after 72 hrs by Cell-Titre Glo luminescent cell viability assay
- Format: functional, cell-based
- test-conditions: SW1990, 72 h
recorded-endpoint: IC50 (µM)
Report the value in µM with no unit label.

In: # query: IC50 of entry Nc1ccn([C@@H]2O[C@H](CO)[C@@H](O)C2(F)F)c(=O)n1 [GEMCITABINE]
Out: 40.2

In: # query: IC50 of entry CCCCCCn1c2ccccc2c2cc(/C=N/NC(=O)c3ccncc3)ccc21
Out: 3.42

In: # query: IC50 of entry CCCCn1c2ccccc2c2cc(/C=N/NC(=O)c3ccncc3)ccc21
Out: 22.4

In: # query: IC50 of entry CCCCn1c2ccc(Br)cc2c2cc(/C=N/NC(=O)c3ccncc3)ccc21
Out: 3.42

###

- System: DU-145
- measurement-notes: Antiproliferative activity against human DU-145 cells assessed as cell growth inhibition measured after 48 hrs by MTT assay
- Format: functional, cell-based
- test-conditions: DU-145, 48 h
recorded-endpoint: pIC50
In textbook form, pIC50 equals minus log to base ten of the concentration in mol/L.

In: # query: pIC50 of entry COc1ccc2[nH]c3c4c(c(C)cc3c2c1)OC(C)(C)C=C4 [KOENIMBINE]
Out: 6.70

###

Consider the following molecules; for each one, report its IC50 at 72 h.
- measurement-notes: Cytotoxicity against green monkey MARC145 cells assessed as cell growth inhibition measured after 72 hrs by MTT assay
- Assay type: toxicity, cell-based, Chlorocebus aethiops
Report the value in µM with no unit label.

In: # query: IC50 at 72 h of entry O=c1[nH]cc(F)c(=O)[nH]1
Out: 72.3

In: # query: IC50 at 72 h of entry Cc1c(C(=O)NCCc2c[nH]c3ccccc23)ccc2c1[nH]c1ccccc12
Out: 20

###

- measurement-notes: Cytotoxicity against human HFB4 cells assessed as cell growth inhibition measured after 24 hrs by MTT assay
- Format: toxicity, cell-based
recorded-endpoint: IC50 at 24 h (µM)
Report the value in µM with no unit label.

In: # query: IC50 at 24 h of entry O=[N+]([O-])c1coc(C2c3[nH]c4ccccc4c3C(c3cc([N+](=O)[O-])co3)c3[nH]c4ccccc4c32)c1 (configuration not stated)
Out: 75.2

In: # query: IC50 at 24 h of entry c1cncc(C2c3[nH]c4ccccc4c3C(c3cccnc3)c3[nH]c4ccccc4c32)c1 (configuration not stated)
Out: 80

###

Consider the following molecules; for each one, report its pIC50.
- System: Hep 3B2
- measurement-notes: Cytotoxicity against human Hep3B cells assessed as cell growth inhibition measured after 48 hrs by MTT assay
- Format: functional, cell-based
In textbook form, pIC50 equals minus log to base ten of the concentration in mol/L.

In: Reported pIC50 for Hep 3B2, given COc1cccc2c1C(=O)c1c(O)c3c(c(O)c1C2=O)C[C@@](O)(C(=O)CO)C[C@@H]3O[C@H]1C[C@H](N)[C@H](O)[C@H](C)O1 [DOXORUBICIN] ?
Out: 5.99

In: Reported pIC50 for Hep 3B2, given CCOc1ccc2c(c1)c1c(n2CCN2CCNCC2)-c2cc(C(C)C)ccc2[C@@]2(C)CCC[C@@](C)(C(=O)OC)C12 (some centres not stated) ?
Out: 6.29

###

Consider the following compounds; for each one, report its IC50.
- Test system: A549
- measurement-notes: Antiproliferative activity against human A549 cells assessed as cell growth inhibition by MTT assay
- Type: functional, cell-based
Report the value in nM with no unit label.

In: Reported IC50 for A549, given COc1ccc2[nH]c3c(C)cc(-c4cc(-c5ccc(F)cc5)nc(N)n4)c(C)c3c2c1 ?
Out: 100

In: Reported IC50 for A549, given COc1ccc2[nH]c3c(C)cc(-c4cc(-c5ccc(C(F)(F)F)cc5F)nc(N)n4)c(C)c3c2c1 ?
Out: 100

In: Reported IC50 for A549, given COc1ccc2[nH]c3c(C)cc(-c4cc(-c5ccc(C(F)(F)F)cc5)nc(N)n4)c(C)c3c2c1 ?
Out: 100

###

- System: A549
- measurement-notes: Antiproliferative activity against human A549 cells assessed as cell growth inhibition measured after 72 hrs by MTT assay
- Format: functional, cell-based
- test-conditions: A549, 72 h
recorded-endpoint: pIC50
In textbook form, pIC50 equals minus log to base ten of the concentration in mol/L.

In: # query: pIC50 of entry CC1CCN(CC(O)Cn2c3ccc(Cl)cc3c3cc(Cl)ccc32)CC1 (stereo not drawn)
Out: 5.15

In: # query: pIC50 of entry OC(CN1CCCCC1)Cn1c2ccc(Cl)cc2c2cc(Cl)ccc21 (stereo not drawn)
Out: 5.15

In: # query: pIC50 of entry CC1CCCCN1CC(O)Cn1c2ccc(Cl)cc2c2cc(Cl)ccc21 (stereo not drawn)
Out: 5.15

###

Consider the following compounds; for each one, report its IC50.
- Test system: HOP-62
- measurement-notes: Antiproliferative activity against human HOP-62 cells assessed as cell growth inhibition measured after 48 hrs by SRB assay
- Type: functional, cell-based
- test-conditions: HOP-62, 48 h
Report the value in nM with no unit label.

In: # query: IC50 of entry Cc1c2ccncc2c(/C=C/C(C)NC=O)c2c1[nH]c1ccccc12 (configuration not stated)
Out: 1250

In: # query: IC50 of entry Cc1c2ccncc2c(C(=O)NCc2ccccc2)c2c1[nH]c1ccccc12
Out: 1710

###

- Test system: MCF7
- measurement-notes: Cytotoxicity against human MCF7 cells assessed as cell growth inhibition measured after 72 hrs by MTT assay
- Format: functional, cell-based
- test-conditions: MCF7, 72 h
Consider the following compounds; for each one, report its IC50.
Report the value in nM with no unit label.

In: Reported IC50 for MCF7, given CC[n+]1c(/C=C/c2ccc3c(c2)c2ccccc2n3CCCCn2ccnc2)sc2ccccc21 ?
Out: 9500

In: Reported IC50 for MCF7, given COc1cc(NC(=O)Nc2cc(C)c3[nH]c4ccc(Br)cc4c3c2C)cc(OC)c1OC ?
Out: 1930

In: Reported IC50 for MCF7, given Cc1c2ccncc2c(C)c2c1[nH]c1ccccc12 ?
Out: 1050

In: Reported IC50 for MCF7, given COc1cc(NC(=O)Nc2cc(C)c3[nH]c4ccc(C)cc4c3c2C)cc(OC)c1OC ?
Out: 1930

###

- measurement-notes: Cytotoxicity against human ARPE-19 cells assessed as cell growth inhibition measured after 72 by Cell-Titre Glo luminescent cell viability assay
- Format: toxicity, cell-based
recorded-endpoint: IC50 (µM)
Report the value in µM with no unit label.

In: # query: IC50 of entry CCCCn1c2ccccc2c2cc(/C=N/NC(=O)c3ccncc3)ccc21
Out: 65.6

###

- Tested on: HeLa
- measurement-notes: Cytotoxicity against human HeLa cells assessed as cell growth inhibition measured after 72 hrs by MTT assay
- Format: functional, cell-based
- test-conditions: pooled result: one value given for 3 cell lines, strains, targets or settings
recorded-endpoint: pIC50
In textbook form, pIC50 equals minus log to base ten of the concentration in mol/L.

In: # query: pIC50 of entry COc1cc(NC(=O)Nc2cc(C)c3[nH]c4ccc(Br)cc4c3c2C)cc(OC)c1OC
Out: 5.71

In: # query: pIC50 of entry COc1cc(NC(=O)Nc2cc(C)c3[nH]c4ccc(C)cc4c3c2C)cc(OC)c1OC
Out: 5.71

In: # query: pIC50 of entry Cc1c2ccncc2c(C)c2c1[nH]c1ccccc12 [ELLIPTECINE]
Out: 5.98

###

- measurement-notes: Cytotoxicity against human MCF-10A cells assessed as cell growth inhibition measured after 72 hrs by MTT assay
- Assay type: toxicity, cell-based
recorded-endpoint: IC50 at 72 h (µM)
Report the value in µM with no unit label.

In: # query: IC50 at 72 h of entry COc1cc(NC(=O)Nc2cc(C)c3[nH]c4ccc(C)cc4c3c2C)cc(OC)c1OC
Out: 210

###

- measurement-notes: Cytotoxicity against human HUVEC cells assessed as cell growth inhibition measured after 48 hrs by MTT assay
- Format: toxicity, cell-based
recorded-endpoint: IC50 at 48 h (µM)
Report the value in µM with no unit label.

In: # query: IC50 at 48 h of entry CCCCCn1cc(CN2C(=O)C3(C(C#N)=C(N)Oc4ccc5c([nH]c6ccccc65)c43)c3ccccc32)nn1 (stereo unspecified)
Out: 4.8

###

- measurement-notes: Cytotoxicity against mouse 3T3-L1 cells assessed as cell growth inhibition measured after 72 hrs by MTT assay
- Assay type: toxicity, cell-based
recorded-endpoint: IC50 at 72 h (µM)
Report the value in µM with no unit label.

In: # query: IC50 at 72 h of entry COc1cc(NC(=O)Nc2cc(C)c3[nH]c4ccc(C)cc4c3c2C)cc(OC)c1OC
Out: 141

Data origin: ChEMBL document CHEMBL5126512
